Hey, just so you know, these numbers are from ChEMBL document CHEMBL3856250.

# testDetails: Cmax in dog at 2 mg/kg, po
# Type: ADME, organism-based, Canis lupus familiaris
# Parameters: dose 2 mg/kg, route oral
# assaySetup: in vivo
measurementName: Cmax (nM)

- Cc1c(-c2c(F)cc(C(N)=O)c3[nH]c4c(c23)CC[C@H](C(C)(C)O)C4)cccc1-n1c(=O)c2cccc(F)c2n(C)c1=O (atropisomer R) [BMS-986142]: 1200

* * *

# testedSystem: Tyrosine-protein kinase ITK/TSK (Homo sapiens)
# Sequence (Q08881 whole entry): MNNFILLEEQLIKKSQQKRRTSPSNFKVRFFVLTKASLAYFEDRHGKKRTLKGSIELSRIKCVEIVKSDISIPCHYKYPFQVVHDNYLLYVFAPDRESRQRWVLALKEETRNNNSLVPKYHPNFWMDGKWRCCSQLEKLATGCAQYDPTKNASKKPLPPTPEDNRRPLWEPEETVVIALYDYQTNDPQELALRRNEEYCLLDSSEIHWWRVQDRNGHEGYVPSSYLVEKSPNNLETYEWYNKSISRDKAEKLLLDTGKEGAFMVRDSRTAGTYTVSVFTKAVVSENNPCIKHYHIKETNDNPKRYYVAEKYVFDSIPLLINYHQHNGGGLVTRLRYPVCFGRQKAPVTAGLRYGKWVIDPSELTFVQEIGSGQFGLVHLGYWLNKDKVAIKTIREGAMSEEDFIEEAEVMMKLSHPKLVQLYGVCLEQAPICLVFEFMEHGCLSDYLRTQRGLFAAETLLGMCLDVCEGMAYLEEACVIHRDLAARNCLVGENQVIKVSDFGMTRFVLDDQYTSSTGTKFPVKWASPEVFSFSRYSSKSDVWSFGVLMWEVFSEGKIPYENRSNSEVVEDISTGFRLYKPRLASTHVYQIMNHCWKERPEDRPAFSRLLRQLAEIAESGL
# testDetails: Inhibition of ITK in human peripheral T cells assessed as suppression of TCR/anti-CD3-stimulated protein catalyzed PLCgamma1 phosphorylation
pIC50: −log10 of the molar value.
measurementName: pIC50

• Cc1c(-c2c(F)cc(C(N)=O)c3[nH]c4c(c23)CC[C@H](C(C)(C)O)C4)cccc1-n1c(=O)c2cccc(F)c2n(C)c1=O (atropisomer R) = 6.39

* * *

# testDetails: MRT in cynomolgus monkey at 2 mg/kg, iv
# Type: ADME, organism-based, Macaca fascicularis
# assaySetup: in vivo
measurementName: MRT (h)

• Cc1c(-c2c(F)cc(C(N)=O)c3[nH]c4c(c23)CC[C@H](C(C)(C)O)C4)cccc1-n1c(=O)c2cccc(F)c2n(C)c1=O (atropisomer R) [BMS-986142] = 4.7

* * *

# testDetails: MRT in rat at 2 mg/kg, iv
# Assay type: ADME, organism-based
# assaySetup: in vivo
measurementName: MRT

* Cc1c(-c2c(F)cc(C(N)=O)c3[nH]c4c(c23)CC[C@H](C(C)(C)O)C4)cccc1-n1c(=O)c2cccc(F)c2n(C)c1=O (atropisomer R) [BMS-986142] | 5.1 h

* * *

# testDetails: AUC in rat at 5 mg/kg, po
# Format: ADME, organism-based
# assaySetup: in vivo
measurementName: AUC (µM·h)

- Cc1c(-c2c(F)cc(C(N)=O)c3[nH]c4c(c23)CC[C@H](C(C)(C)O)C4)cccc1-n1c(=O)c2cccc(F)c2n(C)c1=O (atropisomer R): 23

* * *

# testedSystem: Voltage-gated inwardly rectifying potassium channel KCNH2 (Homo sapiens, UniProt Q12809)
# Sequence (Q12809 whole entry): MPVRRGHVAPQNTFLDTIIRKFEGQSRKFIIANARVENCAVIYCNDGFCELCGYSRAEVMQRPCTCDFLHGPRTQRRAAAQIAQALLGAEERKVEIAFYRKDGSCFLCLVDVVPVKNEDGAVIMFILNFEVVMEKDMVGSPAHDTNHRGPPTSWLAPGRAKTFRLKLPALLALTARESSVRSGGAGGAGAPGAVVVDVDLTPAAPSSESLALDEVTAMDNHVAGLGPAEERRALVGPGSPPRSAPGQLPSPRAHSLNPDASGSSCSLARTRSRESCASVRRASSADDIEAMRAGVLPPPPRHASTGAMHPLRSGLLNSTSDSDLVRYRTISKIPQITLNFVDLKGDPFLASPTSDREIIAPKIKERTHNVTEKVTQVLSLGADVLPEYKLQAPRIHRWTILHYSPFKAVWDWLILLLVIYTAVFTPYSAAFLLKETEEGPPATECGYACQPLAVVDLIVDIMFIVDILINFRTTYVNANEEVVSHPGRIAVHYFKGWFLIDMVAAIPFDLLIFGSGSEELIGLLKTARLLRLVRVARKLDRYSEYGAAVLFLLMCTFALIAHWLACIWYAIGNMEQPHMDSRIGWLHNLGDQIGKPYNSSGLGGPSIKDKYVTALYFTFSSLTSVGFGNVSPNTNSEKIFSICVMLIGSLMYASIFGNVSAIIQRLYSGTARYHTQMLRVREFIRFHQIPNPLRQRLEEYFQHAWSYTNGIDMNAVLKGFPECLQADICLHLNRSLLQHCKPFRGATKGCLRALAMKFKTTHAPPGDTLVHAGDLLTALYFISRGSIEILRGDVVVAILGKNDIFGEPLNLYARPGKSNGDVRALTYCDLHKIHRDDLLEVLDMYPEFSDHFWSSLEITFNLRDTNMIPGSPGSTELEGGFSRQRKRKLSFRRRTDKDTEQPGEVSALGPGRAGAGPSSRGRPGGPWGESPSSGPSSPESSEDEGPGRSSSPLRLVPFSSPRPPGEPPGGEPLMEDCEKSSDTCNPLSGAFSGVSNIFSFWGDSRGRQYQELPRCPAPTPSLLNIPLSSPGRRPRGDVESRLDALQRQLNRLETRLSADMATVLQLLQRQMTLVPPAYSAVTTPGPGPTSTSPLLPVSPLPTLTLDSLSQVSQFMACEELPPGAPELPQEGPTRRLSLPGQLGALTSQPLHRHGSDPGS
# testDetails: Inhibition of human ERG by patch clamp assay
measurementName: IC50 (µM)

* Cc1c(-c2c(F)cc(C(N)=O)c3[nH]c4c(c23)CC[C@H](C(C)(C)O)C4)cccc1-n1c(=O)c2cccc(F)c2n(C)c1=O (atropisomer R) | 5.5

* * *

# testedSystem: UniProtKB Q06187
# testDetails: Inhibition of BTK in human PBM cells assessed as suppression of FCRgammaR/immune complex-stimulated TNFalpha production
# Format: cell-based
measurementName: IC50 (nM)

• Cc1c(-c2c(F)cc(C(N)=O)c3[nH]c4c(c23)CC[C@H](C(C)(C)O)C4)cccc1-n1c(=O)c2cccc(F)c2n(C)c1=O (atropisomer R) = 3

* * *

# testDetails: Half life in mouse at 3 mg/kg, iv
# Format: ADME, organism-based
# assaySetup: in vivo
measurementName: half-life (h)

- Cc1c(-c2c(F)cc(C(N)=O)c3[nH]c4c(c23)CC[C@H](C(C)(C)O)C4)cccc1-n1c(=O)c2cccc(F)c2n(C)c1=O (atropisomer R): 3.4

* * *

# testDetails: Permeability of the compound at pH 5.5 by PAMPA assay
# Type: ADME
# assaySetup: read-out: permeability
measurementName: Papp (×10⁻⁶ cm/s)

* Cc1c(-c2c(F)cc(C(N)=O)c3[nH]c4c(c23)CC[C@H](C(C)(C)O)C4)cccc1-n1c(=O)c2cccc(F)c2n(C)c1=O (atropisomer R) | 67.3

* * *

# testedSystem: Tyrosine-protein kinase BTK (Homo sapiens, UniProt Q06187)
# Sequence (Q06187 whole entry): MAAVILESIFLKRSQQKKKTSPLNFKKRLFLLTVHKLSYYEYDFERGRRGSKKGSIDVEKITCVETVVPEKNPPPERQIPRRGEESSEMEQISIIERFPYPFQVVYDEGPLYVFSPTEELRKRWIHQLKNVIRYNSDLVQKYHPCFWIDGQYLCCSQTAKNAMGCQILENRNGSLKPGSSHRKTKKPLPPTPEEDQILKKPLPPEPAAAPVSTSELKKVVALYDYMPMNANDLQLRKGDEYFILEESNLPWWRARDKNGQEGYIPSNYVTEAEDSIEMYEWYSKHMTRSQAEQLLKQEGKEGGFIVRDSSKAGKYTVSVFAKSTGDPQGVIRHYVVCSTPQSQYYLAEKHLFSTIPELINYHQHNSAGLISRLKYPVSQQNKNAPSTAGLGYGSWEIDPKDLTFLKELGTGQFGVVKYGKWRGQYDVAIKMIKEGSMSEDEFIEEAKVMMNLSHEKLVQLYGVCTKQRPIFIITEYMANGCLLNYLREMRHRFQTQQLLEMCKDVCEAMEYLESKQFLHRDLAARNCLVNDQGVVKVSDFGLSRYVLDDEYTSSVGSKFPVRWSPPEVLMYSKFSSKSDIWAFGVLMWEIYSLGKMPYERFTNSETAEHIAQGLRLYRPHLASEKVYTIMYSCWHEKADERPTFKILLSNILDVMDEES
# testDetails: Inhibition of BTK in human whole blood assessed as suppression of BCR/anti-IgM/IgG-stimulated CD69 surface expression after 18 hrs with agitation by FITC-staining based FACS analysis
# Format: tissue-based
# if measured IC50 < 200 nM: 1  # else: -1

* Cc1c(-c2c(F)cc(C(N)=O)c3[nH]c4c(c23)CC[C@@H](C(C)(C)O)C4)cccc1-n1c(=O)c2cccc(F)c2n(C)c1=O | 1
* Cc1c(-c2c(F)cc(C(N)=O)c3[nH]c4c(c23)CC[C@H](C(C)(C)O)C4)cccc1-n1c(=O)c2cccc(F)c2n(C)c1=O (atropisomer R) [BMS-986142] | 1
* Cc1c(-c2ccc(C(N)=O)c3[nH]c4c(c23)CC[C@H](C(C)(C)O)C4)cccc1-n1c(=O)c2cccc(F)c2n(C)c1=O | -1
* Cc1c(-c2ccc(C(N)=O)c3[nH]c4cc(C(C)(C)O)ccc4c23)cccc1-n1c(=O)c2ccccc2n(C)c1=O | -1
* Cc1c(-c2c(C#N)cc(C(N)=O)c3[nH]c4cc(C(C)(C)O)ccc4c23)cccc1-n1c(=O)c2cccc(F)c2n(C)c1=O | 1
* Cc1cc(C(N)=O)c2[nH]c3cc(C(C)(C)O)ccc3c2c1-c1cccc(-n2c(=O)c3cccc(F)c3n(C)c2=O)c1C | -1

* * *

# testDetails: AUC in mouse at 10 mg/kg
# Format: ADME, organism-based
# assaySetup: in vivo
// boundary case: AUC equal to 20 µM·h maps to 0; strictly smaller maps to 1

- Cc1c(-c2c(F)cc(C(N)=O)c3[nH]c4cc(C(C)(C)O)ccc4c23)cccc1-n1c(=O)c2cccc(F)c2n(C)c1=O: 0
- Cc1c(-c2ccc(C(N)=O)c3[nH]c4cc(C(C)(C)O)ccc4c23)cccc1-n1cnc2ccccc2c1=O: 0
- Cc1c(-c2c(Cl)cc(C(N)=O)c3[nH]c4cc(C(C)(C)O)ccc4c23)cccc1-n1c(=O)c2cccc(F)c2n(C)c1=O: 0
- Cc1c(-c2ccc(C(N)=O)c3[nH]c4c(c23)CC[C@H](C(C)(C)O)C4)cccc1-n1c(=O)c2cccc(F)c2n(C)c1=O: 1
- Cc1c(-c2c(Cl)cc(C(N)=O)c3[nH]c4c(c23)CC[C@H](C(C)(C)O)C4)cccc1-n1c(=O)c2cccc(F)c2n(C)c1=O: 0
- Cc1c(-c2c(C#N)cc(C(N)=O)c3[nH]c4cc(C(C)(C)O)ccc4c23)cccc1-n1c(=O)c2cccc(F)c2n(C)c1=O: 1
- Cc1cc(C(N)=O)c2[nH]c3cc(C(C)(C)O)ccc3c2c1-c1cccc(-n2c(=O)c3cccc(F)c3n(C)c2=O)c1C: 0
- Cc1c(-c2c(F)cc(C(N)=O)c3[nH]c4c(c23)CC[C@H](C(C)(C)O)C4)cccc1-n1c(=O)c2cccc(F)c2n(C)c1=O (atropisomer R): 0

* * *

# testDetails: Cmax in cynomolgus monkey at 4 mg/kg, po
# Format: ADME, organism-based, Macaca fascicularis
# Design: dose 4 mg/kg, route oral
# assaySetup: in vivo
measurementName: Cmax (nM)

* Cc1c(-c2c(F)cc(C(N)=O)c3[nH]c4c(c23)CC[C@H](C(C)(C)O)C4)cccc1-n1c(=O)c2cccc(F)c2n(C)c1=O (atropisomer R) [BMS-986142] | 850

* * *

# testDetails: Half life in dog at 1 mg/kg, iv
# Type: ADME, organism-based, Canis lupus familiaris
# assaySetup: in vivo
measurementName: half-life (min)

* Cc1c(-c2c(F)cc(C(N)=O)c3[nH]c4c(c23)CC[C@H](C(C)(C)O)C4)cccc1-n1c(=O)c2cccc(F)c2n(C)c1=O (atropisomer R) [BMS-986142] | 780

* * *

# testedSystem: Tyrosine-protein kinase BTK (Homo sapiens)
pIC50: −log10 of the molar value.
measurementName: pIC50

* Cc1c(-c2ccc(C(N)=O)c3[nH]c4cc(C(C)(C)O)ccc4c23)cccc1-n1c(=O)c2ccccc2n(C)c1=O | 8.59
* Cc1cc(C(N)=O)c2[nH]c3cc(C(C)(C)O)ccc3c2c1-c1cccc(-n2c(=O)c3cccc(F)c3n(C)c2=O)c1C | 9.19
* Cc1c(-c2c(Cl)cc(C(N)=O)c3[nH]c4cc(C(C)(C)O)ccc4c23)cccc1-n1c(=O)[nH]c2c(F)cccc2c1=O | 8.80
* Cc1c(-c2c(F)cc(C(N)=O)c3[nH]c4c(c23)CC[C@H](C(C)(C)O)C4)cccc1-n1c(=O)c2cccc(F)c2n(C)c1=O [BMS-986142] | 7.60
* Cc1c(-c2ccc(C(N)=O)c3[nH]c4c(c23)CC[C@@H](C(C)(C)O)C4)cccc1-n1c(=O)c2cccc(F)c2n(C)c1=O | 7.96
* Cc1c(-c2ccc(C(N)=O)c3[nH]c4c(c23)CC[C@H](C(C)(C)O)C4)cccc1-n1c(=O)c2cccc(F)c2n(C)c1=O | 8.57
